Target: human P2X3 receptor (Homo sapiens)
Sequence (P56373 1-397): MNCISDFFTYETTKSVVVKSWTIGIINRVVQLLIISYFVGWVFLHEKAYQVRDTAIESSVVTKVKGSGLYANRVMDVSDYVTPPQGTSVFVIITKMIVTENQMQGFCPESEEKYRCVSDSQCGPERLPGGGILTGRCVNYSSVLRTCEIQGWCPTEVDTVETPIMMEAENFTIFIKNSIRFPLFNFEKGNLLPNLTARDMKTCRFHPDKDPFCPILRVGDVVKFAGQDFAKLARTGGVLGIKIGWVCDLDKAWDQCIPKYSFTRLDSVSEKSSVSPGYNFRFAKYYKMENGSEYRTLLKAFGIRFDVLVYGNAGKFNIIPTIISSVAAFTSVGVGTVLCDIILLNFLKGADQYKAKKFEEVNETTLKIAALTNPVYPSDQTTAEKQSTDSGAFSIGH
Test: Calcium luminescence measurement: human P2X3 receptor activity inhibition (CHO-K1 cells, photoprotein readout, FLEXSTATION)
Details: CHO-K1 cells co-expressing human P2X3 and Ca2+ sensitive photoprotein; agonist α,β-Met-ATP; read-out: h-P2X3 IC50
Procedure: Determination of human P2X3 receptor activity inhibition The assay for the human purinergic P2RX3 receptor has been adapted to the internal screening instrumentation using the FLEXSTATION as reader and a photoprotein as luminescent readout. […] The inhibition curves of the tested compounds at cloned P2X3 receptor were determined by nonlinear regression analysis using software Prism 5.0 (Graphpad, San Diego, CA). […]
readout: IC50 (µM)
Your answer is read as µM, so omit the unit and give the number.

Before answering, review these 4 worked examples.
COC(C)(C)c1nnc2c3nnc(N4CCOCC4)cc3n(Cc3ccc(Cl)cc3)c(=O)n12 ... 0.0249
COC(C)(C)c1nnc2c3nnc(N4CCNCC4)cc3n(Cc3ccc(Cl)cc3)c(=O)n12 ... 0.322
CC(C)(CO)C1CN2C(=O)N(Cc3ccc(Cl)cc3)c3cc(N4CCOCC4)cnc3C2=N1 (centres unmarked) ... 0.054
COc1ccc(Cn2c(=O)n3c(C(C)(C)C)nnc3c3ncc(N4CCOCC4)cc32)cc1 ... 0.0348

Attention now turns to another entry.
## Task Hello, I am looking for reported IC50 with human P2X3 receptor (Homo sapiens) for CC(C)C1C(=O)N=C2c3ncc(N4CCOCC4)cc3N(Cc3ccc(Cl)cc3)C(=O)N21 (single isomer, unassigned) [Example 23] . Could you help?
## Result 0.0647

All figures here come from patent EP4389746A2.
